- targetEntity: 5-hydroxytryptamine receptor 2B (Homo sapiens, UniProt P41595); also: assay procedure not described here
- Sequence (P41595 whole entry): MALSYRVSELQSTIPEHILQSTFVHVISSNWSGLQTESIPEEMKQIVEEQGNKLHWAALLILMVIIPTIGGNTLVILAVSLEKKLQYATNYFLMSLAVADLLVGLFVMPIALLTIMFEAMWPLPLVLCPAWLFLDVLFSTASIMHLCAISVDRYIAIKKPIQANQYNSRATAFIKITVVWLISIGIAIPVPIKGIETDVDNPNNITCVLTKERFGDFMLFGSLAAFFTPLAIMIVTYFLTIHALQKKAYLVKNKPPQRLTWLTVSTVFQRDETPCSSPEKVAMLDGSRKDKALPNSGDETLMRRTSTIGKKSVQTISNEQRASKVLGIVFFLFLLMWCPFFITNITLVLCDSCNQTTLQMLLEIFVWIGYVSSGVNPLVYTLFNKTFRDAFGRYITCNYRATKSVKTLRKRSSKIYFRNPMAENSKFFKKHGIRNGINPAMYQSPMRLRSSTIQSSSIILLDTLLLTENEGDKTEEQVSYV
- Format: functional, cell-based
readoutKind: AC50

Q: Looking for the measured AC50 of CC(N)C12CC3CC(CC(C3)C1)C2 (stereo unspecified) , can you help?
Ans: > 10 µM

Q: Query COCC1=C(C(=O)O)N2C(=O)[C@@H](NC(=O)/C(=N\OC)c3csc(N)n3)[C@H]2SC1 next
Ans: > 30 µM

---

Attribute: AC50
- targetEntity: UniProt:P06401
- Sequence (P06401 whole entry): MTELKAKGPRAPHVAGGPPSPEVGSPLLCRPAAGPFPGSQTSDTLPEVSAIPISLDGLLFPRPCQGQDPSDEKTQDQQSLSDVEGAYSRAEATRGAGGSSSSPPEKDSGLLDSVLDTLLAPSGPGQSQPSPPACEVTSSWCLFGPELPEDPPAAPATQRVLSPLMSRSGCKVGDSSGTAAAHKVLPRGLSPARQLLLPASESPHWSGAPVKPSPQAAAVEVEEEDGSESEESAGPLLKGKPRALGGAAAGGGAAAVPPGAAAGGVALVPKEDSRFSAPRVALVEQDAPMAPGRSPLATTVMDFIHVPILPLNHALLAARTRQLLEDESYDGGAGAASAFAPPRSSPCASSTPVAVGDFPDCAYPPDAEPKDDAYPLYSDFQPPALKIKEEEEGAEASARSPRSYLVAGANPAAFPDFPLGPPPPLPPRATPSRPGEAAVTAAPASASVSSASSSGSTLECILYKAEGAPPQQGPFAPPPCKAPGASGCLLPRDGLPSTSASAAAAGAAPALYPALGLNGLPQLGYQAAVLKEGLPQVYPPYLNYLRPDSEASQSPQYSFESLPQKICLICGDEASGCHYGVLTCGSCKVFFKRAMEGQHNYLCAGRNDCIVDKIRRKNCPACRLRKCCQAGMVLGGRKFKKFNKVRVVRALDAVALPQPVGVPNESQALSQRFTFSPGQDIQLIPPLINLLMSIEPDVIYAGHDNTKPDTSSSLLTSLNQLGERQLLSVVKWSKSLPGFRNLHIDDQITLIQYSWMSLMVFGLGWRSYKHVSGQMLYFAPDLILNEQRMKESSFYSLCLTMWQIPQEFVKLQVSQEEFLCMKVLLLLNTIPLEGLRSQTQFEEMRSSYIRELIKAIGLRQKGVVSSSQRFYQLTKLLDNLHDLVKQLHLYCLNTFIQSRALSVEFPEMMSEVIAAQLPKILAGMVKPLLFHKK
- Format: functional

Q: Any idea what AC50 came out for C[C@@H](Oc1cc(-c2cnn(C3CCNCC3)c2)cnc1N)c1c(Cl)ccc(F)c1Cl on UniProt:P06401?
Ans: > 30 µM

---

- targetEntity: Vasopressin V1a receptor (Homo sapiens); also: assay procedure not described here
- Sequence (P37288 whole entry): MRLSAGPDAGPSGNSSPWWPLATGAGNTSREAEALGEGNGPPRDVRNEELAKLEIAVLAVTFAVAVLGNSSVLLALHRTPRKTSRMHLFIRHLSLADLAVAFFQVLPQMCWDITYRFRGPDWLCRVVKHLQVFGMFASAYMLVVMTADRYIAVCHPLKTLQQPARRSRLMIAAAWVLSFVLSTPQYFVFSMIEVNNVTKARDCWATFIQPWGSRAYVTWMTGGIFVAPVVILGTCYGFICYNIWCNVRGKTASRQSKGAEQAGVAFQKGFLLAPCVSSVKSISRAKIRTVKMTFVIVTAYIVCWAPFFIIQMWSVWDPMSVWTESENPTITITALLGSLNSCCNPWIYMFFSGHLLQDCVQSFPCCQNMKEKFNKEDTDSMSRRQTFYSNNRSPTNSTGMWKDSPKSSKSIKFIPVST
Attribute: AC50

{"columns": ["compound", "AC50"],
 "data": [
  ["COc1cc2nc(N3CCN(C(=O)C4CCCO4)CC3)nc(N)c2cc1OC (stereo not drawn)", "> 10 µM"],
  ["C=CCNc1nc(NCC=C)nc(N2CCN(C(c3ccc(F)cc3)c3ccc(F)cc3)CC2)n1", "> 30 µM"],
  ["CCN(CC)CCNC(=O)c1c(C)[nH]c(/C=C2\\C(=O)Nc3ccc(F)cc32)c1C", "> 10 µM"],
  ["CCC[C@H](NC(=O)[C@@H]1[C@H]2CCC[C@H]2CN1C(=O)[C@@H](NC(=O)[C@@H](NC(=O)c1cnccn1)C1CCCCC1)C(C)(C)C)C(=O)C(=O)NC1CC1", "> 10 µM"],
  ["C/N=C(\\NC)NCc1ccccc1", "> 30 µM"],
  ["CCOC(=O)C1=C(C)NC(C)=C(C(=O)OC)C1c1cccc([N+](=O)[O-])c1 (stereo not drawn)", "> 30 µM"],
  ["CCC(C)C1(CC)C(=O)NC(=O)NC1=O (stereo not drawn)", "> 30 µM"]
]}

# evaluate next
Q: Looking for the measured AC50 of CC(=O)O[C@H](CC(=O)[O-])C[N+](C)(C)C , can you help?
Ans: > 30 µM

---

Attribute: AC50
- targetEntity: Histamine H2 receptor (Homo sapiens); also: assay procedure not described here
- Sequence (P25021 whole entry): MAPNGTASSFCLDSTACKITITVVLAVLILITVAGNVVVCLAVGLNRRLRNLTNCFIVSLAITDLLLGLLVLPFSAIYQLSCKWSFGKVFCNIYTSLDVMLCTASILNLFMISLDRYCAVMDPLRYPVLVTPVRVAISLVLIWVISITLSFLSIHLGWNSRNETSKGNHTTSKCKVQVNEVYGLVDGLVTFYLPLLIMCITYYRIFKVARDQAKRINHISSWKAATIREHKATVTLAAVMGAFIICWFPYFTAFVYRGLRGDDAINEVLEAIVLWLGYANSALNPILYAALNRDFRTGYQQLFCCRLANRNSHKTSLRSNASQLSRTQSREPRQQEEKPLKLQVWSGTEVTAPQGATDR
- Type: functional, cell-based

{"columns": ["compound", "AC50"],
 "data": [
  ["Nc1cc(-c2ccncc2)c[nH]c1=O", "> 10 µM"],
  ["CCC(=O)O[C@]1(C(=O)SCF)[C@H](C)C[C@H]2[C@@H]3C[C@H](F)C4=CC(=O)C=C[C@]4(C)[C@@]3(F)[C@@H](O)C[C@@]21C [FLUTICASONE PROPIONATE]", "> 10 µM"],
  ["C/N=C(\\NC)NCc1ccccc1", "> 30 µM"],
  ["CNC1=Nc2ccc(Cl)cc2C(c2ccccc2)=[N+]([O-])C1 [CHLORDIAZEPOXIDE]", "> 30 µM"],
  ["OC1(c2ccc(Cl)cc2)c2ccccc2C2=NCCN21 (stereo not drawn)", "> 10 µM"],
  ["COCC1=C(C(=O)O)N2C(=O)[C@@H](NC(=O)/C(=N\\OC)c3csc(N)n3)[C@H]2SC1", "> 30 µM"]
]}

Q: Any idea what AC50 came out for NC1CCN(c2nc3c(cc2F)c(=O)c(C(=O)O)cn3-c2ccc(F)cc2F)C1 (stereo not drawn) on Histamine H2 receptor (Homo sapiens)?
Ans: > 30 µM

Q: Query C=C1/C(=C\C=C2/CCC[C@]3(C)[C@@H]([C@H](C)/C=C/[C@@H](O)C4CC4)CC[C@@H]23)C[C@@H](O)C[C@@H]1O next
Ans: > 30 µM

---

- targetEntity: Progesterone receptor (Homo sapiens)
- Type: functional
Attribute: AC50
Give the number; µM is assumed, so skip it.

Below, 2 molecules whose answers are already recorded.
{"columns": ["molecule", "measureUnit", "AC50"],
 "data": [
  ["CC(C)N(CCC(C(N)=O)(c1ccccc1)c1ccccn1)C(C)C (stereo not given) [DISOPYRAMIDE]", "µM", 27],
  ["CN(C(=O)c1c(O)c2ccccc2n(C)c1=O)c1ccccc1", "µM", 29]
]}

# evaluate next
Q: Looking for the measured AC50 of Clc1ccc(C(Cn2ccnc2)OCc2ccsc2Cl)c(Cl)c1 (stereo not given) , can you help?
Ans: 10.3

---

- targetEntity: 5-hydroxytryptamine receptor 1A (Homo sapiens, UniProt P08908); also: assay procedure not described here
- Sequence (P08908 whole entry): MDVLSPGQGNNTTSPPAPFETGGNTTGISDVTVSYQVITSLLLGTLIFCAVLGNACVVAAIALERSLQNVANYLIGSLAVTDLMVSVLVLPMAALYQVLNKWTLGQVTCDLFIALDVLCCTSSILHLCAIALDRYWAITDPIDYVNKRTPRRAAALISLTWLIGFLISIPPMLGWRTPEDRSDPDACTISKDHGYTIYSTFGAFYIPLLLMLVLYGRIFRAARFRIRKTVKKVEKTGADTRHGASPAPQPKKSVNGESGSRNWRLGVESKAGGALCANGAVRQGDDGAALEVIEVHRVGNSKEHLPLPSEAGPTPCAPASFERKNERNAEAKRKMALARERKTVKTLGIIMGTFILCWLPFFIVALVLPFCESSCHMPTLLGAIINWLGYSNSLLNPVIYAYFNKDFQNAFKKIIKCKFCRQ
- Format: functional, cell-based
Attribute: AC50

Below, 6 molecules whose answers are already recorded.
{"columns": ["molecule", "AC50"],
 "data": [
  ["Nc1ccc(S(=O)(=O)Nc2nccs2)cc1", "> 10 µM"],
  ["COc1ccc(CC2c3cc(OC)c(OC)cc3CC[N+]2(C)CCC(=O)OCCCCCOC(=O)CC[N+]2(C)CCc3cc(OC)c(OC)cc3C2Cc2ccc(OC)c(OC)c2)cc1OC (centres undefined)", "> 30 µM"],
  ["CCCN(CCC)C(=O)Cc1c(-c2ccc(Cl)cc2)nc2ccc(Cl)cn12", "> 30 µM"],
  ["C#C[C@]1(OC(C)=O)CC[C@H]2[C@@H]3CCC4=C/C(=N/O)CC[C@@H]4[C@H]3CC[C@@]21CC [NORGESTIMATE]", "> 30 µM"],
  ["C[C@@H](NCCCc1cccc(C(F)(F)F)c1)c1cccc2ccccc12", "> 30 µM"],
  ["Cc1ncc2n1-c1ccc(Cl)cc1C(c1ccccc1F)=NC2", "> 30 µM"]
]}

Q: Looking for the measured AC50 of CC(=O)N[C@@H](CS)C(=O)O , can you help?
Ans: > 30 µM

Q: Query C#C[C@]1(O)CC[C@H]2[C@@H]3CCC4=CC(=O)CC[C@@H]4[C@H]3C(=C)C[C@@]21CC next
Ans: > 30 µM

Q: Query CCCC(CCC)C(=O)O next
Ans: > 10 µM

---

Values of AC50 reported for Sodium-dependent noradrenaline transporter (Homo sapiens) appear below.

{"columns": ["compound", "recordedResult"],
 "data": [
  ["CC(=O)[C@@]1(O)CC[C@H]2[C@@H]3C=C(Cl)C4=CC(=O)[C@@H]5C[C@@H]5[C@]4(C)[C@H]3CC[C@@]21C [CYPROTERONE]", "> 10 µM"],
  ["CCC(C)C1(CC)C(=O)NC(=O)NC1=O (stereo not drawn) [BUTABARBITAL]", "> 30 µM"],
  ["N[C@@H](CC(=O)N1CCn2c(nnc2C(F)(F)F)C1)Cc1cc(F)c(F)cc1F [SITAGLIPTIN]", "> 30 µM"]
]}

Q: Looking for the measured AC50 of Cc1cc(C(C)(C)C)cc(C)c1CC1=NCCN1 [XYLOMETAZOLINE] , can you help?
Ans: > 30 µM

Q: Query CC1OC2(CS1)CN1CCC2CC1 (stereo not drawn) [CEVIMELINE] next
Ans: > 10 µM

Q: Query COCC1=C(C(=O)O)N2C(=O)[C@@H](NC(=O)/C(=N\OC)c3csc(N)n3)[C@H]2SC1 [CEFPODOXIME] next
Ans: > 30 µM

Q: Query CC(C)Cc1ccc(C(C)C(=O)O)cc1 (stereo not drawn) [IBUPROFEN] next
Ans: > 30 µM

Q: Query Oc1ccc2c(c1)CC[C@H](c1ccccc1)[C@@H]2c1ccc(OCCN2CCCC2)cc1 [LASOFOXIFENE] next
Ans: 2 µM

Q: Query O=C1CCc2cc(OCCCCc3nnnn3C3CCCCC3)ccc2N1 [CILOSTAZOL] next
Ans: > 30 µM

Q: Query CC(CCc1ccc(O)cc1)NCCc1ccc(O)c(O)c1 (stereo not drawn) [DOBUTAMINE] next
Ans: 1.73 µM

Q: Query CCC(=O)O[C@]1(C(=O)SCF)[C@H](C)C[C@H]2[C@@H]3C[C@H](F)C4=CC(=O)C=C[C@]4(C)[C@@]3(F)[C@@H](O)C[C@@]21C [FLUTICASONE PROPIONATE] next
Ans: > 30 µM

Q: Query CCN(CC)CCNC(=O)c1cc(S(C)(=O)=O)ccc1OC [TIAPRIDE] next
Ans: > 30 µM

Q: Query CN1CCC(=C2c3ccccc3CCc3cccnc32)CC1 [AZATADINE] next
Ans: > 30 µM

Q: Query O=C(O)CCNC(=O)c1ccccc1 [BETAMIPRON] next
Ans: > 30 µM

Q: Query CCCC(CCC)C(=O)O [VALPROIC ACID] next
Ans: > 30 µM

Q: Query CC(C)(C)C(=O)OCC(=O)[C@H]1CC[C@H]2[C@@H]3CCC4=CC(=O)CC[C@]4(C)[C@H]3CC[C@]12C [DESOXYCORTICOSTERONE PIVALATE] next
Ans: > 10 µM

Q: Query CCN(CC)C(=O)Nc1ccc(OCC(O)CNC(C)(C)C)c(C(C)=O)c1 (stereo not drawn) [CELIPROLOL] next
Ans: > 30 µM

Q: Query CC1=C(C)C(=O)C(C(CCCCCC(=O)O)c2ccccc2)=C(C)C1=O (stereo not drawn) [SERATRODAST] next
Ans: > 30 µM
